Measured values drawn from patent US20050101595A1 for this set.

Tested on: HCT-116 cell line
Assay: Inhibition of cell growth, tetrazolium salt (MTT) assay
Format: cell-based
Details: 0.25 μM compound; HCT-116; Table 3

Smiles Notation: Nc1nc(NC2CCN(S(=O)(=O)/C=C/c3ccccc3)CC2)sc1C(=O)c1c(F)cccc1F
HCT-116 % Inhibition at 0.25 μM: 23%
//
Smiles Notation: Nc1nc(NC2CCN(S(=O)(=O)c3ccc(-c4ccon4)s3)CC2)sc1C(=O)c1c(F)cccc1F
HCT-116 % Inhibition at 0.25 μM: 31%
//
Smiles Notation: Nc1nc(NC2CCN(S(=O)(=O)c3ccc(S(=O)(=O)c4ccccc4)s3)CC2)sc1C(=O)c1c(F)cccc1F
HCT-116 % Inhibition at 0.25 μM: 19%
//
Smiles Notation: Nc1nc(NC2CCN(S(=O)(=O)c3ccc(C(=O)O)cc3)CC2)sc1C(=O)c1c(F)cccc1F
HCT-116 % Inhibition at 0.25 μM: 29%
//
Smiles Notation: CCCCOc1ccc(C(C)(C)CC(C)(C)C)cc1S(=O)(=O)N1CCC(Nc2nc(N)c(C(=O)c3c(F)cccc3F)s2)CC1
HCT-116 % Inhibition at 0.25 μM: 30%
//
Smiles Notation: N#Cc1cccc(S(=O)(=O)N2CCC(Nc3nc(N)c(C(=O)c4c(F)cccc4F)s3)CC2)c1
HCT-116 % Inhibition at 0.25 μM: 20%
//
Smiles Notation: Nc1nc(NC2CCN(S(=O)(=O)c3ccc(CNC(=O)c4ccccc4)s3)CC2)sc1C(=O)c1c(F)cccc1F
HCT-116 % Inhibition at 0.25 μM: 33%

====

Molecular target: human CDK4 and genetically truncated (1-264) cyclin D3 (Homo sapiens, UniProt P11802)
Sequence (P11802 whole entry, the tested form may be a part): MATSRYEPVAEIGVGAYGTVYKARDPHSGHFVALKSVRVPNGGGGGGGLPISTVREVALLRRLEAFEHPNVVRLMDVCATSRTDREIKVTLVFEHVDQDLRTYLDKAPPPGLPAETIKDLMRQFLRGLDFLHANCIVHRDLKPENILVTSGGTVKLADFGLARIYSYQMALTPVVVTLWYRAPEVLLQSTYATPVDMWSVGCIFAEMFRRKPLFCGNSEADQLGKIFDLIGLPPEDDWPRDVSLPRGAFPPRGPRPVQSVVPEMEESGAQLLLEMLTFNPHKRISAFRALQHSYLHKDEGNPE
Sequence (P30281 1-264 partner): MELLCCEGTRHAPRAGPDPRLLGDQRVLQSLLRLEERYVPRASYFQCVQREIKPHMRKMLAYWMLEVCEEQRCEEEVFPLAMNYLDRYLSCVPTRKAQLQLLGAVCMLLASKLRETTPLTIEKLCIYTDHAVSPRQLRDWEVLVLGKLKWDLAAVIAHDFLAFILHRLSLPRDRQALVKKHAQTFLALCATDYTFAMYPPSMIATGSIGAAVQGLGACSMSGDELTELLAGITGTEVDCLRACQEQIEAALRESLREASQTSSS
Assay: Inhibition of CDK4/Cyclin D Retinoblastoma Kinase Activity
Type: biochemical
Details: 0.03 μM compound; Table 4
Value Type: CDK4 % Inhibition at 0.03 μM

Smiles Notation: Nc1nc(NC2CCN(C(=O)CCc3ccccc3)CC2)sc1C(=O)c1c(F)cccc1F
Value Reported: 48%

Smiles Notation: Nc1nc(NC2CCN(C(=O)c3ccc4ccccc4c3)CC2)sc1C(=O)c1c(F)cccc1F
Value Reported: 57%

Smiles Notation: Nc1nc(NC2CCN(C(=O)/C=C/c3ccccc3)CC2)sc1C(=O)c1c(F)cccc1F
Value Reported: 47%

Smiles Notation: CCOC(=O)CCC(=O)N1CCC(Nc2nc(N)c(C(=O)c3c(F)cccc3F)s2)CC1
Value Reported: 42%

Smiles Notation: Nc1nc(NC2CCN(C(=O)c3ccccc3C(F)(F)F)CC2)sc1C(=O)c1c(F)cccc1F
Value Reported: 19%

Smiles Notation: Nc1nc(NC2CCN(C(=O)OCc3ccc([N+](=O)[O-])cc3)CC2)sc1C(=O)c1c(F)cccc1F
Value Reported: 55%

Smiles Notation: CCCCOc1ccc(C(=O)N2CCC(Nc3nc(N)c(C(=O)c4c(F)cccc4F)s3)CC2)cc1
Value Reported: 60%

Smiles Notation: Nc1nc(NC2CCN(C(=O)OCC3c4ccccc4-c4ccccc43)CC2)sc1C(=O)c1c(F)cccc1F
Value Reported: 15%

====

Molecular target: CDK2/Cyclin A (Homo sapiens)
Test: Inhibition of CDK2/Cyclin A Retinoblastoma Kinase Activity
Assay type: biochemical
Conditions: 0.03 μM compound; Table 3
Each record gets a class by CDK2 % Inhibition at 0.03 μM: lower (below 30%), middle (30% to below 60%), upper (60% or more)

Smiles Notation: Nc1nc(NC2CCN(S(=O)(=O)c3ccc([N+](=O)[O-])cc3)CC2)sc1C(=O)c1c(F)cccc1F
Test Target: CDK2/Cyclin A (Homo sapiens)
Label Class: upper

Smiles Notation: Nc1nc(NC2CCN(S(=O)(=O)c3cc(S(=O)(=O)c4ccccc4)cs3)CC2)sc1C(=O)c1c(F)cccc1F
Test Target: CDK2/Cyclin A (Homo sapiens)
Label Class: upper

Smiles Notation: Nc1nc(NC2CCN(S(=O)(=O)c3ccc(Cl)c([N+](=O)[O-])c3)CC2)sc1C(=O)c1c(F)cccc1F
Test Target: CDK2/Cyclin A (Homo sapiens)
Label Class: middle

Smiles Notation: Nc1nc(NC2CCN(S(=O)(=O)c3cc(Cl)sc3Cl)CC2)sc1C(=O)c1c(F)cccc1F
Test Target: CDK2/Cyclin A (Homo sapiens)
Label Class: middle

Smiles Notation: CCCCS(=O)(=O)N1CCC(Nc2nc(N)c(C(=O)c3c(F)cccc3F)s2)CC1
Test Target: CDK2/Cyclin A (Homo sapiens)
Label Class: lower

Smiles Notation: Nc1nc(NC2CCN(S(=O)(=O)c3ccc(Oc4ccccc4)cc3)CC2)sc1C(=O)c1c(F)cccc1F
Test Target: CDK2/Cyclin A (Homo sapiens)
Label Class: lower

Smiles Notation: CC(C)S(=O)(=O)N1CCC(Nc2nc(N)c(C(=O)c3c(F)cccc3F)s2)CC1
Test Target: CDK2/Cyclin A (Homo sapiens)
Label Class: lower

Smiles Notation: CC(=O)Nc1ccc(S(=O)(=O)N2CCC(Nc3nc(N)c(C(=O)c4c(F)cccc4F)s3)CC2)cc1
Test Target: CDK2/Cyclin A (Homo sapiens)
Label Class: upper

Smiles Notation: N#Cc1c(Cl)cccc1Oc1ccc(S(=O)(=O)N2CCC(Nc3nc(N)c(C(=O)c4c(F)cccc4F)s3)CC2)cc1
Test Target: CDK2/Cyclin A (Homo sapiens)
Label Class: middle

Smiles Notation: Nc1nc(NC2CCN(S(=O)(=O)c3c(Cl)cc(Cl)cc3Cl)CC2)sc1C(=O)c1c(F)cccc1F
Test Target: CDK2/Cyclin A (Homo sapiens)
Label Class: lower

Smiles Notation: Nc1nc(NC2CCN(S(=O)(=O)Cc3ccccc3)CC2)sc1C(=O)c1c(F)cccc1F
Test Target: CDK2/Cyclin A (Homo sapiens)
Label Class: upper

Smiles Notation: Nc1nc(NC2CCN(S(=O)(=O)c3ccc(Oc4ccncc4)cc3)CC2)sc1C(=O)c1c(F)cccc1F
Test Target: CDK2/Cyclin A (Homo sapiens)
Label Class: lower

Smiles Notation: CS(=O)(=O)c1ccc(S(=O)(=O)N2CCC(Nc3nc(N)c(C(=O)c4c(F)cccc4F)s3)CC2)cc1
Test Target: CDK2/Cyclin A (Homo sapiens)
Label Class: upper

Smiles Notation: CCCCOc1ccc(C(C)(C)CC)cc1S(=O)(=O)N1CCC(Nc2nc(N)c(C(=O)c3c(F)cccc3F)s2)CC1
Test Target: CDK2/Cyclin A (Homo sapiens)
Label Class: lower

Smiles Notation: COC(=O)c1csc(S(=O)(=O)N2CCC(Nc3nc(N)c(C(=O)c4c(F)cccc4F)s3)CC2)c1OC
Test Target: CDK2/Cyclin A (Homo sapiens)
Label Class: middle

Smiles Notation: CC(C)c1ccc(S(=O)(=O)N2CCC(Nc3nc(N)c(C(=O)c4c(F)cccc4F)s3)CC2)cc1
Test Target: CDK2/Cyclin A (Homo sapiens)
Label Class: middle

Smiles Notation: CCCCOc1ccc(S(=O)(=O)N2CCC(Nc3nc(N)c(C(=O)c4c(F)cccc4F)s3)CC2)cc1
Test Target: CDK2/Cyclin A (Homo sapiens)
Label Class: middle

Smiles Notation: Nc1nc(NC2CCN(S(=O)(=O)c3cccc4nsnc34)CC2)sc1C(=O)c1c(F)cccc1F
Test Target: CDK2/Cyclin A (Homo sapiens)
Label Class: upper

Smiles Notation: CS(=O)(=O)CS(=O)(=O)N1CCC(Nc2nc(N)c(C(=O)c3c(F)cccc3F)s2)CC1
Test Target: CDK2/Cyclin A (Homo sapiens)
Label Class: lower

Smiles Notation: Nc1nc(NC2CCN(S(=O)(=O)c3cccs3)CC2)sc1C(=O)c1c(F)cccc1F
Test Target: CDK2/Cyclin A (Homo sapiens)
Label Class: upper

Smiles Notation: Nc1nc(NC2CCN(S(=O)(=O)c3ccc(-c4ccccn4)s3)CC2)sc1C(=O)c1c(F)cccc1F
Test Target: CDK2/Cyclin A (Homo sapiens)
Label Class: upper

Smiles Notation: COC(=O)c1sccc1S(=O)(=O)N1CCC(Nc2nc(N)c(C(=O)c3c(F)cccc3F)s2)CC1
Test Target: CDK2/Cyclin A (Homo sapiens)
Label Class: upper

Smiles Notation: Nc1nc(NC2CCN(S(=O)(=O)c3ccc(Oc4ccc(I)cc4)cc3)CC2)sc1C(=O)c1c(F)cccc1F
Test Target: CDK2/Cyclin A (Homo sapiens)
Label Class: middle

Smiles Notation: Nc1nc(NC2CCN(S(=O)(=O)CCc3cccc4ccccc34)CC2)sc1C(=O)c1c(F)cccc1F
Test Target: CDK2/Cyclin A (Homo sapiens)
Label Class: lower

Smiles Notation: Nc1nc(NC2CCN(S(=O)(=O)c3cccc4cccnc34)CC2)sc1C(=O)c1c(F)cccc1F
Test Target: CDK2/Cyclin A (Homo sapiens)
Label Class: lower

Smiles Notation: CC(C)(C)c1ccc(S(=O)(=O)N2CCC(Nc3nc(N)c(C(=O)c4c(F)cccc4F)s3)CC2)cc1
Test Target: CDK2/Cyclin A (Homo sapiens)
Label Class: lower

====

Biological target: human CDK4 and genetically truncated (1-264) cyclin D3 (Homo sapiens, UniProt P11802)
Assay: Inhibition of CDK4/Cyclin D Retinoblastoma Kinase Activity
Type: biochemical
Conditions: 0.03 μM compound; Table 3
Method: Cyclin-dependent kinase activity was measured by quantifying the enzyme-catalyzed, time-dependent incorporation of radioactive phosphate from [^32P]ATP or [^33P]ATP into a protein substrate. […] The phosphorylated substrate was then captured on a nitrocellulose or phosphocellulose membrane using a 96-well filtration manifold, and unincorporated radioactivity was removed by repeated washing with 0.85% phosphoric acid. Radioactivity was quantified by exposing the dried membranes to a phosphorimager. […]
Quick reference for CDK4 % Inhibition at 0.03 μM among some compounds
Value Type: CDK4 % Inhibition at 0.03 μM (%)

Smiles Notation: Cc1c(S(=O)(=O)N2CCC(Nc3nc(N)c(C(=O)c4c(F)cccc4F)s3)CC2)sc2ccc(Cl)cc12
Result Unit: %
Value Reported: 21
//
Smiles Notation: CCCCS(=O)(=O)N1CCC(Nc2nc(N)c(C(=O)c3c(F)cccc3F)s2)CC1
Result Unit: %
Value Reported: 41
//
Smiles Notation: Cc1ccc2cc(S(=O)(=O)N3CCC(Nc4nc(N)c(C(=O)c5c(F)cccc5F)s4)CC3)ccc2c1
Result Unit: %
Value Reported: 49
//
Smiles Notation: Cc1cc(C)c(S(=O)(=O)N2CCC(Nc3nc(N)c(C(=O)c4c(F)cccc4F)s3)CC2)c(C)c1
Result Unit: %
Value Reported: 11
//
Smiles Notation: CN(C)S(=O)(=O)N1CCC(Nc2nc(N)c(C(=O)c3c(F)cccc3F)s2)CC1
Result Unit: %
Value Reported: 47
//
Smiles Notation: COc1ccc(S(=O)(=O)N2CCC(Nc3nc(N)c(C(=O)c4c(F)cccc4F)s3)CC2)cc1
Result Unit: %
Value Reported: 76
//
Smiles Notation: Nc1nc(NC2CCN(S(=O)(=O)c3ccc4ccccc4c3)CC2)sc1C(=O)c1c(F)cccc1F
Result Unit: %
Value Reported: 65
//
Smiles Notation: N#Cc1cccc(S(=O)(=O)N2CCC(Nc3nc(N)c(C(=O)c4c(F)cccc4F)s3)CC2)c1
Result Unit: %
Value Reported: 43
//
Smiles Notation: Nc1nc(NC2CCN(S(=O)(=O)c3ccc(Cl)s3)CC2)sc1C(=O)c1c(F)cccc1F
Result Unit: %
Value Reported: 66
//
Smiles Notation: N#Cc1ccccc1S(=O)(=O)N1CCC(Nc2nc(N)c(C(=O)c3c(F)cccc3F)s2)CC1
Result Unit: %
Value Reported: 67
//
Smiles Notation: Nc1nc(NC2CCN(S(=O)(=O)c3cccc(Br)c3)CC2)sc1C(=O)c1c(F)cccc1F
Result Unit: %
Value Reported: 68
//
Smiles Notation: COc1ccc(S(=O)(=O)N2CCC(Nc3nc(N)c(C(=O)c4c(F)cccc4F)s3)CC2)cc1OC
Result Unit: %
Value Reported: 74
//
Smiles Notation: Nc1nc(NC2CCN(S(=O)(=O)c3ccc(F)cc3)CC2)sc1C(=O)c1c(F)cccc1F
Result Unit: %
Value Reported: 77
//
Smiles Notation: CC(=O)Nc1ccc(S(=O)(=O)N2CCC(Nc3nc(N)c(C(=O)c4c(F)cccc4F)s3)CC2)cc1
Result Unit: %
Value Reported: 78
//
Smiles Notation: Nc1nc(NC2CCN(S(=O)(=O)c3ccc(F)cc3F)CC2)sc1C(=O)c1c(F)cccc1F
Result Unit: %
Value Reported: 58
//
Smiles Notation: Nc1nc(NC2CCN(S(=O)(=O)c3cccc(C(=O)O)c3)CC2)sc1C(=O)c1c(F)cccc1F
Result Unit: %
Value Reported: 56
//
Smiles Notation: CCc1ccc(S(=O)(=O)N2CCC(Nc3nc(N)c(C(=O)c4c(F)cccc4F)s3)CC2)cc1
Result Unit: %
Value Reported: 61
//
Smiles Notation: Nc1nc(NC2CCN(S(=O)(=O)c3ccc(S(=O)(=O)c4ccccc4)s3)CC2)sc1C(=O)c1c(F)cccc1F
Result Unit: %
Value Reported: 62
//
Smiles Notation: CN(C)c1ccc(N=Nc2ccc(S(=O)(=O)N3CCC(Nc4nc(N)c(C(=O)c5c(F)cccc5F)s4)CC3)cc2)cc1
Result Unit: %
Value Reported: 6
//
Smiles Notation: CS(=O)(=O)c1ccc(S(=O)(=O)N2CCC(Nc3nc(N)c(C(=O)c4c(F)cccc4F)s3)CC2)cc1
Result Unit: %
Value Reported: 73
//
Smiles Notation: Nc1nc(NC2CCN(S(=O)(=O)c3cccc([N+](=O)[O-])c3)CC2)sc1C(=O)c1c(F)cccc1F
Result Unit: %
Value Reported: 22
//
Smiles Notation: Nc1nc(NC2CCN(S(=O)(=O)c3ccc(-c4ccccn4)s3)CC2)sc1C(=O)c1c(F)cccc1F
Result Unit: %
Value Reported: 82
//
Smiles Notation: Nc1nc(NC2CCN(S(=O)(=O)c3ccc(-c4ccon4)s3)CC2)sc1C(=O)c1c(F)cccc1F
Result Unit: %
Value Reported: 81
//
Smiles Notation: CC(C)(C)c1ccc(S(=O)(=O)N2CCC(Nc3nc(N)c(C(=O)c4c(F)cccc4F)s3)CC2)cc1
Result Unit: %
Value Reported: 38
//
Smiles Notation: COc1ccc(Cl)cc1S(=O)(=O)N1CCC(Nc2nc(N)c(C(=O)c3c(F)cccc3F)s2)CC1
Result Unit: %
Value Reported: 26
//
Smiles Notation: Nc1nc(NC2CCN(S(=O)(=O)c3c(Cl)cc(C(F)(F)F)cc3Cl)CC2)sc1C(=O)c1c(F)cccc1F
Result Unit: %
Value Reported: 12
//
Smiles Notation: COC(=O)c1sccc1S(=O)(=O)N1CCC(Nc2nc(N)c(C(=O)c3c(F)cccc3F)s2)CC1
Result Unit: %
Value Reported: 66
//
Smiles Notation: Nc1nc(NC2CCN(S(=O)(=O)c3ccc(CNC(=O)c4ccccc4)s3)CC2)sc1C(=O)c1c(F)cccc1F
Result Unit: %
Value Reported: 64
//
Smiles Notation: N#Cc1ccc(S(=O)(=O)N2CCC(Nc3nc(N)c(C(=O)c4c(F)cccc4F)s3)CC2)c(Cl)c1
Result Unit: %
Value Reported: 52
//
Smiles Notation: Nc1nc(NC2CCN(S(=O)(=O)c3ccc(F)cc3Cl)CC2)sc1C(=O)c1c(F)cccc1F
Result Unit: %
Value Reported: 52
